# measurement description: qHTS for Inhibitors of the Functional Ribonucleoprotein Complex (vRNP) of Lassa (LASV) Arenavirus: Viability assay - alamar blue signal for LASV Primary Screen (AID 1347083); further: nearly all actives have a fitted effect of over 80% in size
# condition label: cell viability, alamar blue fluorescence (LASV minigenome counter-screen); series mostly up to 57.5 µM
Inconclusive results are not listed. Activity calls are given as the source filed them. The call rests on the fitted dose curve; tested in HEK293 reporter line.
# output must be one of active, inactive

Record excerpt, results attached:
compound | assigned category
O=c1cc(CCc2ccccc2)oc2cccc(O)c12 | inactive
COc1c2c(nc3occc13)C(CC=C(C)C)(OC)C(O)CC2 (configuration not stated) | inactive
C=CC(=O)N1CCc2ccc(-n3c(=O)ccc4cnc5ccc(-c6cnn(C)c6)cc5c43)cc21 | inactive

Identify the outcome logged in this assay for the compound shown: `COC(=O)Cc1ccccc1` inactive

Per the records of this test, what outcome belongs to `C/C(=C\C(=O)O)CC(=O)O` ? inactive
